# method-summary: Solubility of saturated solutions determined by HPLC
# Format: physicochemical
# details: organic solvent or mixture, thermodynamic from solid; 1,4-Dioxane, 50° C.; read-out: Solubility
quantity-name: solubility (µg/mL)
Answer in µg/mL, number only, no unit symbol.

For record `CN(C)c1nc(Cc2ccc(NC(=O)c3ccc(C(F)(F)F)cc3)cc2)nc(N(C)C)c1CC(=O)O` the listed solubility is 9830

* * *

# method-summary: Solubility of saturated solutions determined by HPLC
# Assay type: physicochemical
# details: organic solvent or mixture, thermodynamic from solid; 1,4-Dioxane, 25° C.; read-out: Solubility
quantity-name: solubility (µg/mL)
Express it in µg/mL; write the number only.

solubility for CN(C)c1nc(Cc2ccc(NC(=O)c3ccc(C(F)(F)F)cc3)cc2)nc(N(C)C)c1CC(=O)O [Formula I] is 3370

* * *

# method-summary: Solubility of saturated solutions determined by HPLC
# Format: physicochemical
# details: saturated solution in chloroform, organic solvent or mixture, thermodynamic from solid; Chloroform, 25° C.; read-out: Solubility
quantity-name: solubility (µg/mL)
Give the number; µg/mL is assumed, so skip it.

solubility recorded for this compound, `CN(C)c1nc(Cc2ccc(NC(=O)c3ccc(C(F)(F)F)cc3)cc2)nc(N(C)C)c1CC(=O)O` , is 170

* * *

# method-summary: Solubility of saturated solutions determined by HPLC
# Type: physicochemical
# details: thermodynamic from solid; Water, 50° C.; read-out: Solubility
quantity-name: solubility (µg/mL)
Numbers only here, please. The scale is µg/mL.

# compound `CN(C)c1nc(Cc2ccc(NC(=O)c3ccc(C(F)(F)F)cc3)cc2)nc(N(C)C)c1CC(=O)O` ; its solubility = 20

* * *

# method-summary: Solubility of saturated solutions determined by HPLC
# Type: physicochemical
# details: saturated solution in THF, organic solvent or mixture, thermodynamic from solid; THF, 50° C.; read-out: Solubility
quantity-name: solubility (mg/mL)
Write the number in mg/mL without appending the unit.

Kindly note the recorded solubility for CN(C)c1nc(Cc2ccc(NC(=O)c3ccc(C(F)(F)F)cc3)cc2)nc(N(C)C)c1CC(=O)O [Formula I] , which is 32.7

* * *

# method-summary: Solubility of saturated solutions determined by HPLC
# Assay type: physicochemical
# details: saturated solution in DMF, organic solvent or mixture, thermodynamic from solid; DMF, 50° C.; read-out: Solubility
quantity-name: solubility

Note to self: solubility recorded for `CN(C)c1nc(Cc2ccc(NC(=O)c3ccc(C(F)(F)F)cc3)cc2)nc(N(C)C)c1CC(=O)O` was > 50 mg/mL

* * *

# method-summary: Solubility of saturated solutions determined by HPLC
# Assay type: physicochemical
# details: organic solvent or mixture, thermodynamic from solid; MIBK, 25° C.; read-out: Solubility
# Method: Saturated solutions of {4,6-bis(dimethylamino)-2-(4-(4-(trifluoromethyl)-benzamido)benzyl)pyrimidin-5-yl}acetic acid of Formula I in the solvents listed in Table 1 were prepared from the acid predominantly in Form I, at both 25 and 50° C.
quantity-name: solubility (µg/mL)
# output: bare number, implied unit µg/mL

// `CN(C)c1nc(Cc2ccc(NC(=O)c3ccc(C(F)(F)F)cc3)cc2)nc(N(C)C)c1CC(=O)O` : solubility value = 540

* * *

# method-summary: Solubility of saturated solutions determined by HPLC
# Format: physicochemical
# details: organic solvent or mixture, thermodynamic from solid; DMSO, 25° C.; read-out: Solubility
quantity-name: solubility

Briefly, solubility measured for `CN(C)c1nc(Cc2ccc(NC(=O)c3ccc(C(F)(F)F)cc3)cc2)nc(N(C)C)c1CC(=O)O` : > 50 mg/mL

* * *

# method-summary: Solubility of saturated solutions determined by HPLC
# Format: physicochemical
# details: saturated solution in DMF, organic solvent or mixture, thermodynamic from solid; DMF, 25° C.; read-out: Solubility
quantity-name: solubility

solubility reading for CN(C)c1nc(Cc2ccc(NC(=O)c3ccc(C(F)(F)F)cc3)cc2)nc(N(C)C)c1CC(=O)O [Formula I] : > 50 mg/mL

* * *

# method-summary: Solubility of saturated solutions determined by HPLC
# Type: physicochemical
# details: organic solvent or mixture, thermodynamic from solid; Isopropanol, 25° C.; read-out: Solubility
quantity-name: solubility (µg/mL)
// return numeric value only (unit: µg/mL, not printed)

get_value(item= `CN(C)c1nc(Cc2ccc(NC(=O)c3ccc(C(F)(F)F)cc3)cc2)nc(N(C)C)c1CC(=O)O` , readout=solubility) returns 770

* * *

# method-summary: Solubility of saturated solutions determined by HPLC
# Format: physicochemical
# details: saturated solution in MEK, organic solvent or mixture, thermodynamic from solid; MEK, 25° C.; read-out: Solubility
quantity-name: solubility (µg/mL)
Numbers only here, please. The scale is µg/mL.

Record summary for `CN(C)c1nc(Cc2ccc(NC(=O)c3ccc(C(F)(F)F)cc3)cc2)nc(N(C)C)c1CC(=O)O` : reported solubility = 1980

* * *

# method-summary: Solubility of saturated solutions determined by HPLC
# Assay type: physicochemical
# details: organic solvent or mixture, thermodynamic from solid; Ethyl acetate, 50° C.; read-out: Solubility
quantity-name: solubility (µg/mL)
Answer with a number only, understood to be in µg/mL.

GET /value?item= CN(C)c1nc(Cc2ccc(NC(=O)c3ccc(C(F)(F)F)cc3)cc2)nc(N(C)C)c1CC(=O)O [Formula I] &field=solubility returns 1270

* * *

# method-summary: Solubility of saturated solutions determined by HPLC
# Assay type: physicochemical
# details: organic solvent or mixture, thermodynamic from solid; Acetone, 25° C.; read-out: Solubility
quantity-name: solubility (mg/mL)
Respond numerically; units are mg/mL and should not be typed.

solubility measured on `CN(C)c1nc(Cc2ccc(NC(=O)c3ccc(C(F)(F)F)cc3)cc2)nc(N(C)C)c1CC(=O)O` = 2.62

* * *

# method-summary: Solubility of saturated solutions determined by HPLC
# Type: physicochemical
# details: saturated solution in THF, organic solvent or mixture, thermodynamic from solid; THF, 25° C.; read-out: Solubility
quantity-name: solubility (mg/mL)
Unit mg/mL implied. Number only.

Form: molecule = `CN(C)c1nc(Cc2ccc(NC(=O)c3ccc(C(F)(F)F)cc3)cc2)nc(N(C)C)c1CC(=O)O` ; solubility = 11.3

* * *

# method-summary: Solubility of saturated solutions determined by HPLC
# Format: physicochemical
# details: organic solvent or mixture, thermodynamic from solid; Ethyl acetate, 25° C.; read-out: Solubility
quantity-name: solubility (mg/mL)
Expressed in mg/mL, but write only the number.

Query `CN(C)c1nc(Cc2ccc(NC(=O)c3ccc(C(F)(F)F)cc3)cc2)nc(N(C)C)c1CC(=O)O` yields solubility of 0.53

* * *

# method-summary: Solubility of saturated solutions determined by HPLC
# Type: physicochemical
# details: organic solvent or mixture, thermodynamic from solid; Ethyl formate, 25° C.; read-out: Solubility
quantity-name: solubility (µg/mL)
State just the number; it will be interpreted in µg/mL.

Kindly note the recorded solubility for `CN(C)c1nc(Cc2ccc(NC(=O)c3ccc(C(F)(F)F)cc3)cc2)nc(N(C)C)c1CC(=O)O` , which is 390

* * *

# method-summary: Solubility of saturated solutions determined by HPLC
# Type: physicochemical
# details: organic solvent or mixture, thermodynamic from solid; Isopropyl acetate, 50° C.; read-out: Solubility
quantity-name: solubility (µg/mL)
Write the answer as a number in µg/mL, unit excluded.

CN(C)c1nc(Cc2ccc(NC(=O)c3ccc(C(F)(F)F)cc3)cc2)nc(N(C)C)c1CC(=O)O [Formula I] yielded solubility of 780

* * *

# method-summary: Solubility of saturated solutions determined by HPLC
# Assay type: physicochemical
# details: organic solvent or mixture, thermodynamic from solid; Isobutyl acetate, 25° C.; read-out: Solubility
quantity-name: solubility (µg/mL)
# output: bare number, implied unit µg/mL

Value of solubility reported for the molecule `CN(C)c1nc(Cc2ccc(NC(=O)c3ccc(C(F)(F)F)cc3)cc2)nc(N(C)C)c1CC(=O)O` is 200

* * *

# method-summary: Solubility of saturated solutions determined by HPLC
# Assay type: physicochemical
# details: saturated solution in acetonitrile, organic solvent or mixture, thermodynamic from solid; Acetonitrile, 25° C.; read-out: Solubility
quantity-name: solubility (µg/mL)
Quick note: give the figure in µg/mL, leave out the unit.

`CN(C)c1nc(Cc2ccc(NC(=O)c3ccc(C(F)(F)F)cc3)cc2)nc(N(C)C)c1CC(=O)O` yielded solubility of 240

* * *

# method-summary: Solubility of saturated solutions determined by HPLC
# Type: physicochemical
# details: organic solvent or mixture, thermodynamic from solid; Ethanol, 25° C.; read-out: Solubility
quantity-name: solubility (µg/mL)
Dear colleague, please return just the value in µg/mL, with no unit written.

Record summary for `CN(C)c1nc(Cc2ccc(NC(=O)c3ccc(C(F)(F)F)cc3)cc2)nc(N(C)C)c1CC(=O)O` : reported solubility = 1090

* * *

# method-summary: Solubility of saturated solutions determined by HPLC
# Assay type: physicochemical
# details: organic solvent or mixture, thermodynamic from solid; Isopropyl acetate, 25° C.; read-out: Solubility
quantity-name: solubility (µg/mL)
Give the value, in units of µg/mL, as a plain number.

Documented solubility of `CN(C)c1nc(Cc2ccc(NC(=O)c3ccc(C(F)(F)F)cc3)cc2)nc(N(C)C)c1CC(=O)O` : 270
